Ref: patent US5830855A

- Test system: Candida tropicalis
- measurementNotes: Minimum Fungicidal Concentration (MFC)
- Format: cell-based
- conditions: Table 2, 2 isolates, 24 hr
Numbered stars: 1 amine (or outer) side, 2 acyl side, 3 side chain; on linkers, the order of the positions; unused ones are H or OH. Bridge positions count the residues as written; N and C are the ends. Square brackets hold non-standard residues; d marks the D form. Peptide text beside a SMILES is read from it. * marks the point of attachment. ξ: configuration not given here. Asp(3S-OH) = N[C@H](C(=O)O)[C@H](O)C(=O)O; Thr(4-Cl) = N[C@H](C(=O)O)[C@H](O)CCl; ξAsp(3ξ-OH) = NC(C(=O)O)C(O)C(=O)O; X3 = O=C(C(N[*:1])C(O)CCl)[*:2]; X1 = CCCCCCCCC[C@@H](O)CC(=O)*; X2 = CCCCCCCCCCCC(O)CC(=O)*; dDab = NCC[C@@H](N)C(=O)O; Dab = NCC[CH](N)C(=O)O; Orn = NCCC[CH](N)C(=O)O; hSer = N[CH](CCO)C(=O)O; Dhb = C/C=C(\N)C(=O)O
property: MFC (μg/ml) range (µg/mL)
Provide the reading as a plain figure in µg/mL.

Incoming: Look at this molecule and give its reported MFC (μg/ml) range. C/C=C1\NC(=O)[C@H](Cc2ccccc2)NC(=O)[C@H](CCCN=C(N)N)NC(=O)[C@@H](CCN)NC(=O)[C@H](CCN)NC(=O)[C@@H](CO)NC(=O)[C@@H](NC(=O)C[C@H](O)CCCCCCCCC)COC(=O)[C@H]([C@H](O)CCl)NC(=O)[C@H]([C@H](O)C(=O)O)NC1=O [SR-E, Syringomycin-E] (X1-S[dS][Dab][dDab]RF[Dhb][Asp(3S-OH)][Thr(4-Cl)]; ester 1-C)
Outgoing: 5

Incoming: Same question, C/C=C1\NC(=O)C(C(C)O)NC(=O)C(CCCN)NC(=O)C(CCO)NC(=O)CNC(=O)C(CCN)NC(=O)C(NC(=O)CC(O)CCCCCCCCCCC)COC(=O)C(C(O)CCl)NC(=O)C(C(O)C(=O)O)NC1=O (centres unmarked) [ST-B, Syringotoxin B] (X2-S[Dab]G[hSer][Orn]T[Dhb][ξAsp(3ξ-OH)][X3]; ester 1-C; configuration not given here) this time
Outgoing: 12.5

Incoming: Same question, C/C=C1\NC(=O)C(C(C)O)NC(=O)C(CCCN)NC(=O)C(CCO)NC(=O)C(CCN)NC(=O)C(CCN)NC(=O)C(NC(=O)CC(O)CCCCCCCCCCC)COC(=O)C(C(O)CCl)NC(=O)C(C(O)C(=O)O)NC1=O (centres unmarked) [SS-A, syringostatin-A] (X2-S[Dab][Dab][hSer][Orn]T[Dhb][ξAsp(3ξ-OH)][X3]; ester 1-C; configuration not given here) this time
Outgoing: 5

* * *

- System: Candida krusei
- measurementNotes: Minimum Fungicidal Concentration (MFC)
- Type: cell-based
- conditions: Table 2, 2 isolates, 24 hr
- Description: Medium: Liquid RPMI 1640 (RPMI) medium with L-glutamine and without sodium bicarbonate (Sigma Chemical Co., R-6504; St. Louis, Mo.) buffered with 0.165M MOPS (34.54 g/liter) was used for in vitro antifungal tests. […] Aspergillus fumigatus and Mucor spp. were grown for 1 wk at 35° C. […] The stock suspensions of all filamentous fungi were measured at 530 nm and adjusted to 85-87% transmission. The concentration (1×10^6 to 5×10^6 CFU/ml) was determined by hemacytometer count or plate count on SDA. […]
Bridge positions count the residues as written; N and C are the ends. Square brackets hold non-standard residues; d marks the D form. Peptide text beside a SMILES is read from it. * marks the point of attachment. Asp(3S-OH) = N[C@H](C(=O)O)[C@H](O)C(=O)O; Thr(4-Cl) = N[C@H](C(=O)O)[C@H](O)CCl; X1 = CCCCCCCCC[C@@H](O)CC(=O)*; dDab = NCC[C@@H](N)C(=O)O; Dab = NCC[C@H](N)C(=O)O; Dhb = C/C=C(\N)C(=O)O
property: MFC (μg/ml) range (µg/mL)
Provide the reading as a plain figure in µg/mL.

Incoming: Look at this compound and give its reported MFC (μg/ml) range. C[C@@H]1[C@H](O)[C@@H](C)/C=C/C=C/C=C/C=C/C=C/C=C/C=C/[C@H](O[C@@H]2O[C@H](C)[C@@H](O)[C@H](N)[C@@H]2O)C[C@@H]2O[C@](O)(C[C@@H](O)C[C@@H](O)[C@H](O)CC[C@@H](O)C[C@@H](O)CC(=O)O[C@H]1C)C[C@H](O)[C@H]2C(=O)O [AmB, amphotericin B, reference compound]
Outgoing: 0.6

Incoming: Same question, C/C=C1\NC(=O)[C@H](Cc2ccccc2)NC(=O)[C@H](CCCN=C(N)N)NC(=O)[C@@H](CCN)NC(=O)[C@H](CCN)NC(=O)[C@@H](CO)NC(=O)[C@@H](NC(=O)C[C@H](O)CCCCCCCCC)COC(=O)[C@H]([C@H](O)CCl)NC(=O)[C@H]([C@H](O)C(=O)O)NC1=O [SR-E, Syringomycin-E] (X1-S[dS][Dab][dDab]RF[Dhb][Asp(3S-OH)][Thr(4-Cl)]; ester 1-C) this time
Outgoing: 10

Incoming: Same question, CC(=O)N1CCN(c2ccc(OCC3COC(Cn4ccnc4)(c4ccc(Cl)cc4Cl)O3)cc2)CC1 (centres unmarked) [Ktz, ketoconazole, reference compound] this time
Outgoing: 0.15
